Source listed as the supplement of paper PMC10567573.

B1: SNAP91 (parent)
chain: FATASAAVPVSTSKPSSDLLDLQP

Variants of: B1
protocol: protein stability index of a GFP-peptide fusion (GPS, HEK-293T) (PSI 1-6); higher = more stable;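 also: lentivirally expressed fusions sorted by FACS into six bins by GFP to DsRed ratio, PSI derived from sequencing read proportions per bin multiplied by bin number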
conditions: c terminus: a fixed tail appended
Parameter threshold = 3. Response is fulfilled when protein stability index meets or exceeds it, else not fulfilled.

# count of solved cases: 5
variant-description | assigned-class
K14W | not fulfilled
Q23R | fulfilled
A6N | fulfilled
P9K | fulfilled
P9F | not fulfilled

# input Hi, just wondering whether V8W shows protein stability index of 3 or higher.
# output not fulfilled

# input Dear colleague, could you confirm whether P9T has protein stability index at or above 3?
# output fulfilled
